B1: Osa-1-4 twister ribozyme (parent)
chain: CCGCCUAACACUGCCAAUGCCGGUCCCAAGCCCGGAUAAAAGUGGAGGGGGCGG

Variants of: B1
Assay: self-cleavage, relative activity (ratio to wild type); higher = more cleavage; co-transcriptional
Property measured: self-cleavage

Mutation descriptor | Property measured | Recorded result
C33U G53C | self-cleavage | 0.07
C32U U18G | self-cleavage | 0.22
C14U G49C | self-cleavage | 0.05
G19U G42A | self-cleavage | 0.06
C31U C32A | self-cleavage | 0.05
A38G C26G | self-cleavage | 0.14
A41U G34A | self-cleavage | 0.82
A41G U24C | self-cleavage | 0.07
A36C G34A | self-cleavage | 0.88
A38C C52G | self-cleavage | 1.03
G34C G54A | self-cleavage | 0.15
C21A C27U | self-cleavage | 0.08
G48A U37C | self-cleavage | 0.11
C27A U24G | self-cleavage | 0.02
A16U G13U | self-cleavage | 0.02
A29C C20U | self-cleavage | 0.08
C11U G23C | self-cleavage | 0.04
C21G G48A | self-cleavage | 0.03
A38G G30C | self-cleavage | 0.04
A8G U18A | self-cleavage | 0.57
A17C U43C | self-cleavage | 0.58
C33U G53A | self-cleavage | 0.35
A38G G23C | self-cleavage | 0.08
C14A C9A | self-cleavage | 0.03
C11U C21A | self-cleavage | 0.29
A41G G23U | self-cleavage | 0.06
A28G G23C | self-cleavage | 0.04
C31A G51U | self-cleavage | 0.04
G19A G49A | self-cleavage | 0.08
A29C G49A | self-cleavage | 0.02
A10U G30A | self-cleavage | 0.01
A10C A16C | self-cleavage | 0.09
A38U G49C | self-cleavage | 0.05
C11U U18G | self-cleavage | 0.7
C21G G44A | self-cleavage | 0.09
A17U G47C | self-cleavage | 0.16
C15A G30A | self-cleavage | 0.02
A36C G53A | self-cleavage | 0.19
A36U U24C | self-cleavage | 0.45
A40G G35U | self-cleavage | 0.69
A17U U24G | self-cleavage | 0.03
A10G A38U | self-cleavage | 0.8
A17C A41G | self-cleavage | 0.68
A36C A38G | self-cleavage | 0.54
C14U G45C | self-cleavage | 0.04
C27G G35C | self-cleavage | 0.04
